Would you kindly list pIC50 for each of these compounds?
Molecular target: Malonyl-CoA decarboxylase, mitochondrial (Homo sapiens)
Sequence (O95822 whole entry): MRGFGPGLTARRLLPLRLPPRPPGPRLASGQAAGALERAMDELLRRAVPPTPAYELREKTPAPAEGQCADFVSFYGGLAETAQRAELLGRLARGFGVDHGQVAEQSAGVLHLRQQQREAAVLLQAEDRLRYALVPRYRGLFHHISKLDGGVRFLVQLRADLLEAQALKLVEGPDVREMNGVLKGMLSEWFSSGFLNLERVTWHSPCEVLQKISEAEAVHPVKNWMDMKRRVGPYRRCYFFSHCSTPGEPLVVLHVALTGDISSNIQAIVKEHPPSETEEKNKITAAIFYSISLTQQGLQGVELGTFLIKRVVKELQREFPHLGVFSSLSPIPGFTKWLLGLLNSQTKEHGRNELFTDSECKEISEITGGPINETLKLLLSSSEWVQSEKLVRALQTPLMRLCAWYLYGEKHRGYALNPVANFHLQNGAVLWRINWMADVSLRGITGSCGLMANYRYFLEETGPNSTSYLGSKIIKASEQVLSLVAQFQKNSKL
Experiment: Inhibitory activity against recombinant human MCD MBP fusion protein
By convention, pIC50 is the negative base-10 log of a molar concentration.

State, for Malonyl-CoA decarboxylase, mitochondrial (Homo sapiens), measured pIC50 of the compound listed here: CCC(C)c1ncc(CNC(C)C)n1-c1ccc(C(O)(C(F)(F)F)C(F)(F)F)cc1 (stereo not drawn)
6.47

Return reported pIC50 for target or system Malonyl-CoA decarboxylase, mitochondrial (Homo sapiens), item CC(C)c1nc(CO)cn1-c1ccc(C(O)(C(F)(F)F)C(F)(F)F)cc1 .
6.61

Under Malonyl-CoA decarboxylase, mitochondrial (Homo sapiens), report pIC50 for OCc1cnc(-c2ccccn2)n1-c1ccc(C(O)(C(F)(F)F)C(F)(F)F)cc1
6.10

Please look at CC(C)NC(=O)CCC1CN(Cc2cnc(C(C)C)n2-c2ccc(C(O)(C(F)(F)F)C(F)(F)F)cc2)CCO1 (stereo not drawn) and tell me its recorded pIC50 on Malonyl-CoA decarboxylase, mitochondrial (Homo sapiens).
5.97

Provide pIC50, tested on Malonyl-CoA decarboxylase, mitochondrial (Homo sapiens), for CC(C)c1nc(C(F)(F)F)cn1-c1ccc(C(O)(C(F)(F)F)C(F)(F)F)cc1 .
6.25

Report pIC50 under test system Malonyl-CoA decarboxylase, mitochondrial (Homo sapiens) for CCCCNCc1cnc(C(C)C)n1-c1ccc(C(O)(C(F)(F)F)C(F)(F)F)cc1 .
6.32

With Malonyl-CoA decarboxylase, mitochondrial (Homo sapiens) as the test system, provide measured pIC50 for this compound: CCC(C)c1ncc(/C=C/C(=O)O)n1-c1ccc(C(O)(C(F)(F)F)C(F)(F)F)cc1 (stereo not drawn)
6.28

Give Malonyl-CoA decarboxylase, mitochondrial (Homo sapiens) pIC50 for the following compound: CCC(C)c1ncc(CO)n1-c1ccc(C(O)(C(F)(F)F)C(F)(F)F)cc1 (stereo not drawn)
6.49
